As shown below, each of these compounds has a reported pIC50 value.
# ASSAY_TARGET: EGFR (human) (UniProt P00533)
# Sequence (P00533 whole entry, looked up): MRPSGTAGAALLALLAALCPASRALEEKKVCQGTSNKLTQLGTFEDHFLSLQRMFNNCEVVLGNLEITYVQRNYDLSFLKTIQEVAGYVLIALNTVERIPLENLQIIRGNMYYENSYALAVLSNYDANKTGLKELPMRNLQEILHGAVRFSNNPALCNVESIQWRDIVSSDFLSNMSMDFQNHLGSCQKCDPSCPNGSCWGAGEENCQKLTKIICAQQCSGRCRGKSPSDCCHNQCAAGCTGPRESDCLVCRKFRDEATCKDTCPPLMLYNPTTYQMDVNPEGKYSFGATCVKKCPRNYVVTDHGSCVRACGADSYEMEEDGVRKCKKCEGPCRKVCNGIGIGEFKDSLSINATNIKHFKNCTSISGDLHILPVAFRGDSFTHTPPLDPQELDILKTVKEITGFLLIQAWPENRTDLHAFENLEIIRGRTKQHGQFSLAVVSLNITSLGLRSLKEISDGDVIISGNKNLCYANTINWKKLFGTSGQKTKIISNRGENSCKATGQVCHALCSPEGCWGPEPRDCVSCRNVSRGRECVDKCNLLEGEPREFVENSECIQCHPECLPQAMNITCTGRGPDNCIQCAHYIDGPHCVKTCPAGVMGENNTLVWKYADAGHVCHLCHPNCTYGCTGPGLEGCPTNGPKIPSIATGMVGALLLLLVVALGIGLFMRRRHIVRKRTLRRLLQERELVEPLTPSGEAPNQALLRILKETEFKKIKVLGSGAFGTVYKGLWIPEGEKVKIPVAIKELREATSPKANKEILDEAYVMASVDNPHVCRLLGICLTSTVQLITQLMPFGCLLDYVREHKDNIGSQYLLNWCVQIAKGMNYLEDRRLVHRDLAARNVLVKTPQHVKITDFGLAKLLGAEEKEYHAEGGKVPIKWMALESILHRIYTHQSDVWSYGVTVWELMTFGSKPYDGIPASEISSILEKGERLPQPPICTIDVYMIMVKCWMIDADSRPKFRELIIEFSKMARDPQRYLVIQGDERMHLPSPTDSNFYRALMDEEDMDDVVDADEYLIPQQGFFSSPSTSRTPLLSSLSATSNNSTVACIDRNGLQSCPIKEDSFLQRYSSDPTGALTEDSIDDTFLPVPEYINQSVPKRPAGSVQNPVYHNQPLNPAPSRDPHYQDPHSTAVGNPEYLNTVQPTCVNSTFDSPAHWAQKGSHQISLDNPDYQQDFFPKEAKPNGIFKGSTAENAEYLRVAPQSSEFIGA
# MEASUREMENT_CONTEXT: a431
On this scale, pIC50 is minus log10 of a concentration expressed in M (mol/L).

Solved entries:
# CHEMICAL_STRING, pIC50
rows = [
    ("Cc1c(C=C2C(=O)Nc3ncc(Br)cc32)[nH]c2c1C(=O)N(CCN1CCOCC1)CC2", 4.80),
    ("CCN(CC)CCN1CCc2[nH]c(C=C3C(=O)Nc4cccc(C5CCNCC5)c43)c(C)c2C1=O", 6.46),
    ("Cc1c(C=C2C(=O)Nc3cccc(Br)c32)[nH]c2c1C(=O)N(CCN1CCCC1)CC2", 6.70),
    ("Cc1c(C=C2C(=O)Nc3cccc(-c4cccc(Cl)c4F)c32)[nH]c2c1C(=O)N(CCN1CCOCC1)CC2", 5.21),
    ("Cc1c(C=C2C(=O)Nc3ncnc(Nc4ccc(F)c(Cl)c4)c32)[nH]c2c1C(=O)N(CCN1CCOCC1)CC2", 6.48),
    ("Cc1c(C=C2C(=O)Nc3ccc(NC=O)cc32)[nH]c2c1C(=O)N(CCN1CCCCC1)CC2", 6.92),
    ("CCN(CC)CCN1CCc2[nH]c(C=C3C(=O)Nc4c(NC(C)=O)cc(F)cc43)c(C)c2C1=O", 5.86),
    ("Cc1c(C=C2C(=O)Nc3cccc(-c4cccc(F)c4)c32)[nH]c2c1C(=O)N(CCN1CCCCC1)CC2", 6.74),
]

// moving on: another record for pIC50
Item CCN(CC)CCN1CCc2[nH]c(C=C3C(=O)Nc4ccc(F)cc43)c(C)c2C1=O ; assay system EGFR (human) (UniProt P00533); pIC50 reported as 5.96
